Tested on: MS2 coat protein
test_name: apparent Kd, MS2 coat protein; higher = weaker binding; RNA-MaP array; FMN 200 µM where present
conditions_used: designed as: OFF switch for flavin mononucleotide; no ligand
experimental_endpoint: apparent Kd (µM)
Provide only the numeric value, understood in µM.

Previously resolved entries follow.
[[record]]
sequence_text = "GCCUCACAUGAGGAUCACCCAUGUCAGGAUAUCUAAGGCGAAGUGCAAGCACCUCGUGAGAGAAGGGACGUCAA"
test_target = "MS2 coat protein"
value = 0.0232

[[record]]
sequence_text = "CUCAUGUUAGGAUAUGCGCUCAACGUAGUGGUCGAGCUCUAGCAGAAGGAACAUGAGGAUCACCCAUGUUUGCA"
test_target = "MS2 coat protein"
value = 0.0581

[[record]]
sequence_text = "GAUAAGGAAGGAUAUGUGGCCUUAUACAUGAGGAUCACCCAUGUUACGACAUACCACUACACAGAAGGUCUAUUAC"
test_target = "MS2 coat protein"
value = 0.0322


// switching to the query sequence
*Q* Return reported apparent Kd; argument: AAAGAGCGAGGAUAUACAUGAGGAUCACCCAUGUGAAGAUGCAUGGUCUGAACGUCUGGUAGAAGGCGUAUGAA
*A* 0.161

====

System: MS2 coat protein
test_name: apparent Kd, MS2 coat protein; higher = weaker binding; RNA-MaP array; tryptophan 2.4 mM where present
conditions_used: designed as: ON switch for tryptophan; no ligand
Classification field. Basis: apparent Kd. Definitions: class A = under 0.02 µM, class B = from 0.02 µM up to 0.07 µM, class C = 0.07 µM and over

Known results for sequences:
[[record]]
sequence_text = "AACACAUGAGGAUCACCCAUGUCCAUGUACCGAGGACCGGUACGGCCGCCACUCGACAUGAGGAUCACCCAUGUUCCAUGUUGUC"
test_target = "MS2 coat protein"
answer_label = "class C"

[[record]]
sequence_text = "AGUACAUGAGGAUCACCCAUGUAUCGGUACCGAGGACCGGUACGGCCGCCACUCGCAGGACAUGAGGAUCACCCAUGUGCCGCCG"
test_target = "MS2 coat protein"
answer_label = "class A"

[[record]]
sequence_text = "ACAUUAGCCACGGCCGCCACUGCUUUAUGAUUAUAAGGAUUAAUGAACAUGAGGAUCACCCAUGUCAGGACCGGGUGCCUACCAU"
test_target = "MS2 coat protein"
answer_label = "class B"

[[record]]
sequence_text = "CGAGUAGGUUCAAUCGAAUAACGGUUUUCGCGAGGACCGGUACGGCCGCCACUCGUGUGAUAUCACACAUGAGGAUCACCCAUGU"
test_target = "MS2 coat protein"
answer_label = "class B"

[[record]]
sequence_text = "CUACAUUUGUAGAAACCGGUCAACAUUAUUCGAGGACCGGUACGGCCGCCACUCGUAUAAUUUAAUACAUGAGGAUCACCCAUGU"
test_target = "MS2 coat protein"
answer_label = "class A"


*Q* Please report the category associated with GCUAGGUCAUCGGCCGCCACUAACGAUGGCUCCGACAUGAGGAUCACCCAUGUGCCACAUGCGCAUAGGACCGGGAUGACCUAGC , nothing else.
*A* class A

*Q* Category lookup for the sequence GGUUACUCUACGGCCGCCACUGUAAAGUAAAGAUUACUGUACAUGACAUGAGGAUCACCCAUGUACAGGACCGGGUAGUGUAACC
*A* class B

*Q* Pick a category. Item: CGAGUGAGUUCAAUCGAAUAACGGUUUUCGCGAGGACCGGUACGGCCGCCACUCGUGUGAUAUCACACAUGAGGAUCACCCAUGU
*A* class B
